Assayed target: Serotonin 3 (5-HT3) receptor (Rattus norvegicus) (UniProt P35563+Q9JJ16)
Protocol text: Tested for 5-HT 3 receptor antagonist potency by ability to inhibit the reflex bradycardia, the Bezold-Jarisch reflex in the rat
Format: functional
The label class 1 is reserved for ID50 strictly under 0.004 mg/kg; class 0 covers values equal to or above it.

These recorded examples may help you get a feel for the data.
COc1cc(N)c(Cl)cc1C(=O)N[C@H]1CCN2CCC[C@@H]1C2 (relative stereo) :: class 0
COc1cc(N)c(Cl)cc1C(=O)NC1CCN2CCOC1C2 (single isomer, unassigned; (-)) :: class 0

INPUT: Threshold test, ID50 < 0.004 mg/kg: COc1cc(N)c(Cl)cc1C(=O)NC1CN2CCCC1C2 (stereo in doubt; endo)
OUTPUT: class 1

INPUT: Threshold test, ID50 < 0.004 mg/kg: COc1cc(N)c(Cl)cc1C(=O)NC1CCN2CCCC1C2 (stereo in doubt; 5d)
OUTPUT: class 0

INPUT: Threshold test, ID50 < 0.004 mg/kg: COc1cc(N)c(Cl)cc1C(=O)NC1CN2CCCC1C2 (stereo in doubt; exo)
OUTPUT: class 0

INPUT: Threshold test, ID50 < 0.004 mg/kg: COc1cc(N)c(Cl)cc1C(=O)NC1CCN2CCOC1C2 (single isomer, unassigned; (+))
OUTPUT: class 0

INPUT: Threshold test, ID50 < 0.004 mg/kg: COc1cc(N)c(Cl)cc1C(=O)NC1C2CC3CCN(C2)CC1C3 (stereo in doubt; endo)
OUTPUT: class 1

INPUT: Threshold test, ID50 < 0.004 mg/kg: CCN(CC)CCNC(=O)c1cc(Cl)c(N)cc1OC [METOCLOPRAMIDE]
OUTPUT: class 0

---

Assayed target: Serotonin 3 (5-HT3) receptor (Rattus norvegicus) (UniProt P35563+Q9JJ16)
Protocol text: Tested for 5-HT 3 receptor antagonist potency by ability to inhibit the reflex bradycardia, the Bezold-Jarisch reflex in the rat
Assay type: functional
Parameter measured: ID50 (µg/kg)
Entry rule: numbers only, all in µg/kg.

Past entries and their recorded results:
COc1cc(N)c(Cl)cc1C(=O)NC1CCN2CCCC1C2 (stereo in doubt) :: 3.3
COc1cc(N)c(Cl)cc1C(=O)N[C@H]1CCN2CCC[C@@H]1C2 :: 4.2
COc1cc(N)c(Cl)cc1C(=O)NC1C2CC3CCN(C2)CC1C3 (stereo in doubt; exo) :: 59

The recorded ID50 for entry COc1cc(N)c(Cl)cc1C(=O)NC1CC2CCCN(C2)C1 (centres undefined) equals 5.5
